Each recorded value in this set is attributed to paper PMC3039689.

Target: luciferase-transfected Leishmania donovani
Assay: Anti-leishmanial efficacy (EC50) in the ex vivo splenic explant model
Type: cell-based
Conditions: ex vivo splenic explant, 48 h, luminometry; at least two experiments; compound from screened library; read-out: Ex vivo model EC50 Mean
EC50 overview
PROPERTY: EC50 (µM)

• OC(c1cc(-c2ccc(Cl)cc2)nc2ccccc12)C1CCCCN1 (stereo not shown) = 6.7
• CCN(CC)CC(O)c1ccc2ccc3ccccc3c2c1 (stereo not shown) = 8.9
• O=[As](O)(O)c1ccc(Cc2ccc([As](=O)(O)O)cc2)cc1 = 6.9
• C=C1C(=O)[C@]23[C@H](O)[C@H]1CC[C@H]2[C@@]12CO[C@]3(O)[C@@H](O)[C@@H]1C(C)(C)CC[C@@H]2O [Rubescensin A] = 11
• CCCCCCc1ccc(O)cc1O.Nc1c2ccccc2nc2ccccc12 [Acrisorcin] = 8
• c1ccc(-c2ccc(-c3ccc(C4=NCCN4)cc3)o2)cc1 = 7.5
• Cc1cc(C(C)(C)CC(C)(C)C)ccc1OCCOCC[N+](C)(C)Cc1ccccc1 [Methylbenzethonium Chloride] = 7.1

---

Test: Cell toxicity (CC50) in the HepG2 cell line, CellTiter-Glo
Type: cell-based, human
Conditions: human
Structures can show the parent of a compound that is named as a salt.
PROPERTY: CC50 (µM)

* CNCCC=C1c2ccccc2CCc2ccccc21 [Nortriptyline Hydrochloride] | 52.6
* C[C@@H]1C[C@H]2CC[C@H](O2)[C@H](C)C(=O)O[C@@H](C)C[C@@H]2CC[C@@H](O2)[C@@H](C)C(=O)O[C@H](C)C[C@H]2CC[C@H](O2)[C@H](C)C(=O)O[C@@H](C)C[C@@H]2CC[C@@H](O2)[C@@H](C)C(=O)O1 | 23.7
* CC(C)=CCNc1ncnc2nc[nH]c12 | 225
* Cc1c2ccncc2c(C)c2c1[nH]c1ccccc12 | 30.7

---

Biological target: luciferase-transfected Leishmania donovani
Assay: Anti-leishmanial efficacy (EC50) in the ex vivo splenic explant model
Format: cell-based
Details: ex vivo splenic explant, 48 h, luminometry; at least two experiments; compound from screened library; read-out: Ex vivo model EC50 Mean
pEC50: −log10 of the molar value.
pEC50 overview
PROPERTY: pEC50

- CC1=CC(C2/C(=N/O)C=C(C)CC2(C)C)C(O)C(C)(C)C1 (stereo not drawn): 4.96
- OC(c1cc(-c2ccccc2)nc2c1ccc1ccccc12)C1CCCCN1 (stereo not drawn): 5.30
- CC1CC(C)(O)CC(C(O)CC2CC(=O)NC(=O)C2)C1=O (stereo not drawn): 5.43
- CC(C)c1ccc2c(c1)CC[C@H]1[C@](C)(CN)CCC[C@]21C [Dehydroabietylamine]: 5.24
- CCN(CC)COC(=S)S: 5.43
- COc1ccc2c(=O)oc3c(OC)cc(CCN(C)C)c4c(=O)oc1c2c34 [Thaspine Acetate]: 5.57

---

Test system: HepG2 cells
Assay: Cell toxicity (CC50) in the HepG2 cell line, CellTiter-Glo
Assay type: cell-based, human
Settings: HepG2 cell line, 24 h, ATP luminescence; compound from screened library; read-out: HepG2 CC50 Mean
PROPERTY: CC50 (µM)

* COc1ccc2c(=O)oc3c(OC)cc(CCN(C)C)c4c(=O)oc1c2c34 [Thaspine Acetate] | 51.4
* CC[C@@H](C(=O)[C@@H](C)[C@@H](O)[C@H](C)CCc1ccc(C)c(O)c1C(=O)O)[C@H]1O[C@](CC)([C@H]2CC[C@](O)(CC)[C@H](C)O2)C[C@@H]1C [Lasalocid Sodium] | 45.8
* CCN(CC)COC(=S)S | 83.7
* O=[As](O)(O)c1ccc(Cc2ccc([As](=O)(O)O)cc2)cc1 | 34.5
* CCCC(c1cc(C(C)(C)C)c(O)cc1C)c1cc(C(C)(C)C)c(O)cc1C | 71.7
* O=C1C=C2C=C[C@H]3C[C@]2(O1)[C@@H]1CCCCN13 | 121
* CSc1ccc2c(c1)N(CCCN(C)C)c1ccccc1S2 | 83.9
* CC1=CC(C2/C(=N/O)C=C(C)CC2(C)C)C(O)C(C)(C)C1 (stereo not shown) | 140
* CCC1=C(CC2NCCc3cc(OC)c(OC)cc32)CC2c3ccccc3CCN2C1 (stereo not shown) | 76.2
* CC1CC(C)(O)CC(C(O)CC2CC(=O)NC(=O)C2)C1=O (stereo not shown) | 32.4
* O=c1c2ccccc2sc2c(CO)ccc(NCCN3CCCCC3)c12 | 56
* CCCCCCc1ccc(O)cc1O.Nc1c2ccccc2nc2ccccc12 | 50.9
* CCN(CC)CC(O)c1ccc2ccc3ccccc3c2c1 (stereo not shown) | 54.2
